assay.overview: self-splicing fitness, log relative to wild type (ln ratio); higher = more splicing; Tetrahymena group I intron in knt gene, E. coli kanamycin selection, DiMSum; sequences stand for … in CUCUCU…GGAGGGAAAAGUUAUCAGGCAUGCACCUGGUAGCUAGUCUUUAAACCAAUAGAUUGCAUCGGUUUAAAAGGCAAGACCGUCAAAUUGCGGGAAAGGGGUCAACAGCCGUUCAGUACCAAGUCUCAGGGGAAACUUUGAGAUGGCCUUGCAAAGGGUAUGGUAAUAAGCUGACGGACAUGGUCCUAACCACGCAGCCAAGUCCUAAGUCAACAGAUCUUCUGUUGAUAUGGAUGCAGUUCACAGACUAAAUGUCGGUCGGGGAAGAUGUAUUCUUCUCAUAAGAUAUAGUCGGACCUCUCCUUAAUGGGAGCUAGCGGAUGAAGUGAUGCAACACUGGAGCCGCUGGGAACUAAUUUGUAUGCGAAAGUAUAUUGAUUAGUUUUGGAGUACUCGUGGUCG;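 also: selection with 25 µg/mL kanamycin versus none on LB agar overnight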
recorded.conditions: 30 °C
Assignment: determine reported self-splicing fitness (ln) for the given sequences.
Answers are plain numbers.

Below: 5 sequences and their reported self-splicing fitness (ln).
ACCGAGCAAUAUUACGUUAU | -3.78
GGAUAGCAAUAUUACGGACG | -0.899
AUCGAGCAAUAUUACGUGUA | -3.46
UGACAGCAAUAUUACGGUAG | -0.921
AGCAAGCAAUAUUACGUUUC | -4.44

Each sequence below has a reported value. Please supply its self-splicing fitness (ln).
1. AUGCAGCAAUAUUACGUUUG
2. UUGGAGCAAUAUUACGUGCC
3. CCCAAGCAAUAUUACGUAGA
4. CCAAAGCAAUAUUACGGUGG

(A)
-3.45
-3.24
-3.94
-4.1

Each sequence below has a reported value. Please supply its self-splicing fitness (ln).
1. CAUAAGCAAUAUUACGCGUA
2. CCGCAGCAAUAUUACGCUGA
3. ACCCAGCAAUAUUACGAGAU
4. GGCGAGCAAUAUUACGUAGA

(A)
[-1.76, -3.21, -1.72, -2.07]

Each sequence below has a reported value. Please supply its self-splicing fitness (ln).
1. GGCCAGCAAUAUUACGGUCG
2. UGAUAGCAAUAUUACGCUGG
3. AUUCAGCAAUAUUACGUCGG

(A)
[-1.2, -1.15, -3.16]
